# assay-system: Motilin Receptor (Oryctolagus cuniculus, UniProt G1T803)
# Construct: strips of longitudinal smooth muscle were sliced from the segments; from tissue; host or cells: rabbit duodenum longitudinal smooth muscle strips
# Sequence (G1T803 1-400): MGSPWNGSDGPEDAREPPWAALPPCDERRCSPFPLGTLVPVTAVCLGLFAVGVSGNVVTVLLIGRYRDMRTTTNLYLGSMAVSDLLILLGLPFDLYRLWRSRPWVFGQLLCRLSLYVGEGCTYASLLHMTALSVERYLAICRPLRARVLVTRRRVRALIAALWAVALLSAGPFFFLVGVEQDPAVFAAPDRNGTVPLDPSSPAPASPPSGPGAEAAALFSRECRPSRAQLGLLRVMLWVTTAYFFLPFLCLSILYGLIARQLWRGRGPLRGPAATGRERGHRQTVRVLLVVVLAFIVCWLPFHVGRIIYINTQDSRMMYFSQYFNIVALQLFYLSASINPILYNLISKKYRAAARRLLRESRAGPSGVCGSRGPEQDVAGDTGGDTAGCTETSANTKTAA
# test-description: Tissue based assay for motilin agonist potency (rabbit duodenum contractility)
# Assay type: cell-based
# experimental-context: rabbit duodenum strips, contraction normalized to 1 μM carbachol; read-out: Motilin Receptor Agonist Activity (EC50)
measure: EC50 (nM)
Write the number in nM without appending the unit.

The following compounds have reported results that may help.
[
  {
    "compound": "CC[C@H]1OC(=O)[C@H](C)[C@@H](O[C@H]2C[C@@](C)(OC)[C@@H](O)[C@H](C)O2)[C@H](C)[C@@H](O[C@@H]2O[C@H](C)C[C@H](N(C)C(C)C)[C@H]2O)[C@](C)(O)C[C@@H](C)[C@H](OC(N)=O)[C@H](C)[C@@H](O)[C@]1(C)O [Compound A-17]",
    "EC50, nM": 650
  },
  {
    "compound": "CC[C@H]1OC(=O)[C@H](C)[C@@H](O[C@H]2C[C@@](C)(OC)[C@@H](O)[C@H](C)O2)[C@H](C)[C@@H](O[C@@H]2O[C@H](C)C[C@H](N(C)C(C)C)[C@H]2O)[C@](C)(O)C[C@@H](C)[C@H](OCC(=O)Nc2ccncn2)[C@H](C)[C@@H](O)[C@]1(C)O [Compound A-77]",
    "EC50, nM": 25
  },
  {
    "compound": "CC[C@H]1OC(=O)[C@H](C)[C@@H](O[C@H]2C[C@@](C)(OC)[C@@H](O)[C@H](C)O2)[C@H](C)[C@@H](O[C@@H]2O[C@H](C)C[C@H](N(C)C(C)C)[C@H]2O)[C@](C)(O)C[C@@H](C)[C@H](OCC(=O)NCCOC)[C@H](C)[C@@H](O)[C@]1(C)O [Compound A-63]",
    "EC50, nM": 50
  },
  {
    "compound": "CCOC(=O)CO[C@@H]1[C@H](C)[C@@H](O)[C@](C)(O)[C@@H](CC)OC(=O)[C@H](C)[C@@H](O[C@H]2C[C@@](C)(OC)[C@@H](O)[C@H](C)O2)[C@H](C)[C@@H](O[C@@H]2O[C@H](C)C[C@H](N(C)C3CCC3)[C@H]2O)[C@](C)(O)C[C@H]1C [Compound A-10]",
    "EC50, nM": 680
  },
  {
    "compound": "CC[C@H]1OC(=O)[C@H](C)[C@@H](O[C@H]2C[C@@](C)(OC)[C@@H](O)[C@H](C)O2)[C@H](C)[C@@H](O[C@@H]2O[C@H](C)C[C@H](N(C)C(C)C)[C@H]2O)[C@](C)(O)C[C@@H](C)[C@H](OCc2nccs2)[C@H](C)[C@@H](O)[C@]1(C)O [Compound A-29]",
    "EC50, nM": 290
  },
  {
    "compound": "CC[C@H]1OC(=O)[C@H](C)[C@@H](O[C@H]2C[C@@](C)(OC)[C@@H](O)[C@H](C)O2)[C@H](C)[C@@H](O[C@@H]2O[C@H](C)C[C@H](N(C)C(C)C)[C@H]2O)[C@](C)(O)C[C@@H](C)[C@H](OCC(=O)NC2CC2)[C@H](C)[C@@H](O)[C@]1(C)O [Compound A-46]",
    "EC50, nM": 31
  },
  {
    "compound": "CC[C@H]1OC(=O)[C@H](C)[C@@H](O[C@H]2C[C@@](C)(OC)[C@@H](O)[C@H](C)O2)[C@H](C)[C@@H](O[C@@H]2O[C@H](C)C[C@H](N(C)C(C)C)[C@H]2O)[C@](C)(O)C[C@@H](C)[C@H](OCCNC(=O)c2ccc3[nH]cnc3c2)[C@H](C)[C@@H](O)[C@]1(C)O [Compound A-58]",
    "EC50, nM": 37
  },
  {
    "compound": "CCOC(=O)CO[C@@H]1[C@H](C)[C@@H](O)[C@](C)(O)[C@@H](CC)OC(=O)[C@H](C)[C@@H](O[C@H]2C[C@@](C)(OC)[C@@H](O)[C@H](C)O2)[C@H](C)[C@@H](O[C@@H]2O[C@H](C)C[C@H](N(C)C[C@H](C)O)[C@H]2O)[C@](C)(O)C[C@H]1C [Compound A-9]",
    "EC50, nM": 430
  }
]

Exercise: // EC50 lookup, key: CC[C@H]1OC(=O)[C@H](C)[C@@H](O[C@H]2C[C@@](C)(OC)[C@@H](O)[C@H](C)O2)[C@H](C)[C@@H](O[C@@H]2O[C@H](C)C[C@H](N(C)C3CCC3)[C@H]2O)[C@](C)(O)C[C@@H](C)[C@H](OC(C)=O)[C@H](C)[C@@H](O)[C@]1(C)O [Compound A-24]
Key: 860

Exercise: // EC50 lookup, key: CC[C@H]1OC(=O)[C@H](C)[C@@H](O[C@H]2C[C@@](C)(OC)[C@@H](O)[C@H](C)O2)[C@H](C)[C@@H](O[C@@H]2O[C@H](C)C[C@H](N(C)C3CCC3)[C@H]2O)[C@](C)(O)C[C@@H](C)[C@H](OCC(N)=O)[C@H](C)[C@@H](O)[C@]1(C)O [Compound A-13]
Key: 220

Exercise: // EC50 lookup, key: CC[C@H]1OC(=O)[C@H](C)[C@@H](O[C@H]2C[C@@](C)(OC)[C@@H](O)[C@H](C)O2)[C@H](C)[C@@H](O[C@@H]2O[C@H](C)C[C@H](N(C)CC(C)(C)O)[C@H]2O)[C@](C)(O)C[C@@H](C)[C@H](NS(C)(=O)=O)[C@H](C)[C@@H](O)[C@]1(C)O [Compound A-37]
Key: 52
